tested on: ACHN; experiment: Cytotoxicity against human ACHN cells after 72 hrs by CCK8 assay; assay type: functional, cell-based

[
  {
    "sampleSmiles": "CC(=O)OC[C@@]1(C)CCC[C@@]2(C)[C@H]1[C@H](OC(=O)c1ccc([N+](=O)[O-])cc1)C=C1C(=O)OC[C@@]12O",
    "IC50 (µM)": 4.1
  },
  {
    "sampleSmiles": "CNC(=O)c1cc(Oc2ccc(NC(=O)Nc3ccc(Cl)c(C(F)(F)F)c3)cc2)ccn1",
    "IC50 (µM)": 3.4
  },
  {
    "sampleSmiles": "C[C@]1(COC(=O)c2ccc([N+](=O)[O-])cc2)CCC[C@@]2(C)[C@H]1[C@H](O)C=C1C(=O)OC[C@@]12O",
    "IC50 (µM)": 11
  },
  {
    "sampleSmiles": "C[C@]1(COC(=O)c2ccc([N+](=O)[O-])cc2)CCC[C@]2(C)[C@H]3COC(=O)C3=C[C@@H](O)[C@@H]12",
    "IC50 (µM)": 30
  }
]

* * *

system: ACHN; test: Cytotoxicity against human ACHN cells after 72 hrs by CCK8 assay; type: functional, cell-based
endpoint: IC50 (µM)

[
  {
    "sampleSmiles": "CC(=O)OC[C@@]1(C)CCC[C@]2(C)[C@H]3COC(=O)C3=C[C@@H](OC(=O)c3ccc([N+](=O)[O-])cc3)[C@@H]12",
    "endpoint": "IC50",
    "valueObserved": 13
  },
  {
    "sampleSmiles": "C[C@]1(CO)CCC[C@]2(C)[C@H]3COC(=O)C3=C[C@@H](OC(=O)c3ccc([N+](=O)[O-])cc3)[C@@H]12",
    "endpoint": "IC50",
    "valueObserved": 25
  },
  {
    "sampleSmiles": "C[C@]1(CO)CCC[C@@]2(C)[C@H]1[C@H](OC(=O)c1ccc([N+](=O)[O-])cc1)C=C1C(=O)OC[C@@]12O",
    "endpoint": "IC50",
    "valueObserved": 1.5
  }
]

* * *

tested on: OS-RC-2; assay: Cytotoxicity against human OS-RC2 cells after 72 hrs by CCK8 assay; type: functional, cell-based; conditions: OS-RC-2, 72 h
endpoint: log10 of IC50 (log10 of the value in µM)

[
  {
    "molecule": "CNC(=O)c1cc(Oc2ccc(NC(=O)Nc3ccc(Cl)c(C(F)(F)F)c3)cc2)ccn1 [SORAFENIB]",
    "endpoint": "log10 of IC50",
    "valueObserved": 0.85
  },
  {
    "molecule": "C[C@]1(CO)CCC[C@]2(C)[C@H]3COC(=O)C3=C[C@@H](OC(=O)c3ccc([N+](=O)[O-])cc3)[C@@H]12",
    "endpoint": "log10 of IC50",
    "valueObserved": 1.48
  },
  {
    "molecule": "CC(=O)OC[C@@]1(C)CCC[C@]2(C)[C@H]3COC(=O)C3=C[C@@H](OC(=O)c3ccc([N+](=O)[O-])cc3)[C@@H]12",
    "endpoint": "log10 of IC50",
    "valueObserved": 1.04
  },
  {
    "molecule": "C[C@]1(COC(=O)c2ccc([N+](=O)[O-])cc2)CCC[C@@]2(C)[C@H]1[C@H](O)C=C1C(=O)OC[C@@]12O",
    "endpoint": "log10 of IC50",
    "valueObserved": 0.91
  },
  {
    "molecule": "CC(=O)OC[C@@]1(C)CCC[C@@]2(C)[C@H]1[C@H](OC(=O)c1ccc([N+](=O)[O-])cc1)C=C1C(=O)OC[C@@]12O",
    "endpoint": "log10 of IC50",
    "valueObserved": 0.72
  },
  {
    "molecule": "C[C@]1(COC(=O)c2ccc([N+](=O)[O-])cc2)CCC[C@]2(C)[C@H]3COC(=O)C3=C[C@@H](O)[C@@H]12",
    "endpoint": "log10 of IC50",
    "valueObserved": 1.36
  },
  {
    "molecule": "C[C@]1(CO)CCC[C@@]2(C)[C@H]1[C@H](OC(=O)c1ccc([N+](=O)[O-])cc1)C=C1C(=O)OC[C@@]12O",
    "endpoint": "log10 of IC50",
    "valueObserved": 0.18
  }
]
